B1: FAM107A (parent)
chain: LQRVLEHRRRNQLIKKKKEELEAK

Variants of: B1
Assay: protein stability index of a GFP-peptide fusion (GPS, HEK-293T) (PSI 1-6); higher = more stable;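 further: lentivirally expressed fusions sorted by FACS into six bins by GFP to DsRed ratio, PSI derived from sequencing read proportions per bin multiplied by bin number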
Conditions: c terminus: a fixed tail appended
Answer each item with its documented protein stability index.
Numbers only.

Completed entries (count: 5):
[
  {
    "MUTATION_KEY": "E20S",
    "protein stability index": 3.99
  },
  {
    "MUTATION_KEY": "L5A",
    "protein stability index": 4.08
  },
  {
    "MUTATION_KEY": "K16M",
    "protein stability index": 3.09
  },
  {
    "MUTATION_KEY": "K24Q",
    "protein stability index": 3.9
  },
  {
    "MUTATION_KEY": "E6P",
    "protein stability index": 3.96
  }
]

Hey, can you go through the list below and give me protein stability index for every item?
1. K16C
2. R9H
3. I14R

output:
1. 3.26
2. 3.65
3. 3.66

Give measured protein stability index for every item shown.
1. H7R
2. K18E
3. R3W
4. H7F

output:
1: 3.19; 2: 3.89; 3: 2.27; 4: 3.1

For every record below, what is its protein stability index?
1. L1Y
2. I14E
3. K16Q
4. K24S
5. A23V

output:
1. 3.02
2. 4.18
3. 3.82
4. 3.97
5. 3.03

Please supply protein stability index for each of the following items, keeping them in order.
1. L13P
2. L13Q
3. K16N
4. R8P

output:
[4.07, 3.73, 4.07, 3.45]

Can you give me protein stability index for all of these, one by one?
1. N11K
2. L5S

output:
1. 3.62
2. 4.46

List protein stability index for every entry below, keeping the order given.
1. R8W
2. A23D
3. Q2F
4. K15Y

output:
1. 1.68
2. 3.75
3. 2.16
4. 3.51

For every item below, please supply its protein stability index.
1. V4F
2. H7C
3. E6A
4. E19H
5. Q2N
6. R9G
7. K18M

output:
1. 2.05
2. 3.37
3. 3.07
4. 2.87
5. 4.13
6. 4.14
7. 3.57
